Source listed as the Immune Epitope Database (IEDB).

Target: HLA-A*11:01
Assay: IEDB peptide-MHC binding, purified MHC/competitive/radioactivity; filed as Kd, often an IC50 or EC50 that approximates it; bounds were set here for any values at or beyond the usual limits of such assays
Conditions: source organism: Mammarenavirus tacaribeense
pKd: −log10 of the molar value.
reported endpoint: pKd

I would be grateful if you could share the reported pKd for QYIHCFRKPH . ≤ 4.16

====

Each record here notes measured pKd.
Molecular target: HLA-A*29:02
Assay: IEDB peptide-MHC binding, purified MHC/competitive/radioactivity; filed as Kd, often an IC50 or EC50 that approximates it; bounds were set here for any values at or beyond the usual limits of such assays
Conditions: source organism: Mammarenavirus brazilense
Expect pKd as a plain number equal to -log10 of the molar concentration.

These solved cases illustrate the format of a correct answer.
LINLTTIAY :: 6.46
EFFECFKYLL :: 7.49

What does the data say about its pKd? Entry: LINERDYSRY 4.78

====

Molecular target: HLA-B*46:01
Experiment: IEDB peptide-MHC binding, purified MHC/competitive/fluorescence; filed as Kd, often an IC50 or EC50 that approximates it; bounds were set here for any values at or beyond the usual limits of such assays
Settings: source organism: Vibrio antiquarius
reported endpoint: Kd

// returns reported Kd for input VTGCASLYV ≥ 20 µM

====

Molecular target: HLA-A*24:03
Test: IEDB peptide-MHC binding, purified MHC/competitive/fluorescence; filed as Kd, often an IC50 or EC50 that approximates it; bounds were set here for any values at or beyond the usual limits of such assays
Details: source organism: Cryptosporidium parvum Iowa II
reported endpoint: Kd

Recorded Kd of RLKHIFLIF , please. ≥ 20 µM

====

Biological target: HLA-B*15:17
Assay: IEDB peptide-MHC binding, purified MHC/competitive/fluorescence; filed as Kd, often an IC50 or EC50 that approximates it; bounds were set here for any values at or beyond the usual limits of such assays
Conditions: source organism: Lechiguanas virus
reported endpoint: Kd

For the sequence shown here, LQPSDTLLF , give the reported Kd. ≥ 20 µM

====

Biological target: HLA-B*08:03
Assay: IEDB peptide-MHC binding, purified MHC/direct/fluorescence; filed as Kd, often an IC50 or EC50 that approximates it; bounds were set here for any values at or beyond the usual limits of such assays
Details: source organism: Mycobacterium tuberculosis str. Haarlem
pKd: −log10 of the molar value.
reported endpoint: pKd

Look at this sequence and give its reported pKd. KYFVRSTEK ≤ 4.70

====

Target: HLA-B*15:01
Assay: IEDB peptide-MHC binding, purified MHC/competitive/fluorescence; filed as Kd, often an IC50 or EC50 that approximates it; bounds were set here for any values at or beyond the usual limits of such assays
Conditions: source organism: Mycobacterium tuberculosis variant bovis BCG str. Pasteur 1173P2
reported endpoint: pKd
Units for pKd: none; it is -log10 of a concentration expressed in mol/L.

Using the record for RPRRASSPF , report its pKd. 6.54

====

Biological target: HLA-B*58:01
Assay: IEDB peptide-MHC binding, purified MHC/direct/fluorescence; filed as Kd, often an IC50 or EC50 that approximates it; bounds were set here for any values at or beyond the usual limits of such assays
Conditions: source organism: Coxiella burnetii
reported endpoint: Kd

Please give the measured Kd for this sequence: EEMPLVWDL ≥ 20 µM

====

Target: HLA-B*07:02
Experiment: IEDB peptide-MHC binding, purified MHC/direct/fluorescence; filed as Kd, often an IC50 or EC50 that approximates it; bounds were set here for any values at or beyond the usual limits of such assays
Settings: source organism: Influenza A virus (A/goose/Hong Kong/8/1976(H1N1))
pKd: −log10 of the molar value.
reported endpoint: pKd

For the sequence KTTYWWDGL , what pKd is on record? ≤ 4.70

====

Target: HLA-B*58:01
Assay: IEDB peptide-MHC binding, purified MHC/direct/fluorescence; filed as Kd, often an IC50 or EC50 that approximates it; bounds were set here for any values at or beyond the usual limits of such assays
Details: source organism: Sudan ebolavirus - Maleo (1979)
pKd: −log10 of the molar value.
reported endpoint: pKd

Entry TGIVSSMHY : reported pKd = ? ≤ 4.70

====

Target: HLA-C*14:02
Experiment: IEDB peptide-MHC binding, purified MHC/direct/fluorescence; filed as Kd, often an IC50 or EC50 that approximates it; bounds were set here for any values at or beyond the usual limits of such assays
Conditions: source organism: Vibrio antiquarius
reported endpoint: Kd (nM)
Please respond with the number in nM and leave the unit unwritten.

Give its Kd value. Item: KVAQAAAAM 72

====

Target: HLA-B*35:01
Experiment: IEDB peptide-MHC binding, purified MHC/competitive/radioactivity; filed as Kd, often an IC50 or EC50 that approximates it; bounds were set here for any values at or beyond the usual limits of such assays
Conditions: source organism: Dengue virus 2 Jamaica/1409/1983
Reported pKd values follow for various sequences
Conceptually, pKd converts a concentration in mol/L into minus its log10.

FMALVAFLRF :: 7.16

What value of pKd has been recorded for this entry: VATTFVTPM 6.69

# query: pKd of entry LPVWLAYRVA 6.51

====

Molecular target: HLA-A*01:01
Assay: IEDB peptide-MHC binding, purified MHC/direct/fluorescence; filed as Kd, often an IC50 or EC50 that approximates it; bounds were set here for any values at or beyond the usual limits of such assays
Settings: source organism: Escherichia coli O157:H7
reported endpoint: Kd

NLPSKPVWL :: ≥ 20 µM

Find the measured Kd: item GLKRGGVLL , target or system HLA-A*01:01. ≥ 20 µM

====

Target: HLA-B*08:01
Experiment: IEDB peptide-MHC binding, purified MHC/direct/fluorescence; filed as Kd, often an IC50 or EC50 that approximates it; bounds were set here for any values at or beyond the usual limits of such assays
Settings: source organism: West Nile virus
pKd: −log10 of the molar value.
reported endpoint: pKd

For the sequence GMSWITQGL , what pKd is on record? ≤ 4.70

====

Biological target: HLA-A*02:01
Assay: IEDB peptide-MHC binding, purified MHC/competitive/fluorescence; bounds were set here for any values at or beyond the usual limits of such assays
Conditions: source organism: Vaccinia virus Copenhagen
Attribute: IC50
Numeric answer only, unit µM assumed.

LNGAMVEYV :: 29.1
KTFKDESIF :: 66.8

Could you now consider this next sequence?
Give the measured IC50 of YFLKIKVTA . 6.34

====

Biological target: HLA-A*33:01
Experiment: IEDB peptide-MHC binding, purified MHC/competitive/radioactivity; filed as Kd, often an IC50 or EC50 that approximates it; bounds were set here for any values at or beyond the usual limits of such assays
Conditions: source organism: Mammarenavirus guanaritoense
reported endpoint: pKd
Remember, pKd is on a log scale: it is -log10 of the molar concentration.

Param item = SIVLHIQLEH ; retrieve measured pKd. 5.09

====

Molecular target: HLA-C*15:02
Assay: IEDB peptide-MHC binding, purified MHC/direct/fluorescence; filed as Kd, often an IC50 or EC50 that approximates it; bounds were set here for any values at or beyond the usual limits of such assays
Conditions: source organism: Vibrio vulnificus CMCP6
reported endpoint: Kd

Suppose we examine the sequence RIHDIAVQL ; what Kd value has been reported? 196 nM

====

Target: HLA-A*26:01
Assay: IEDB peptide-MHC binding, purified MHC/direct/fluorescence; filed as Kd, often an IC50 or EC50 that approximates it; bounds were set here for any values at or beyond the usual limits of such assays
Conditions: source organism: Escherichia coli O157:H7
pKd: −log10 of the molar value.
reported endpoint: pKd

Suppose we examine the sequence GLKRGGVLL ; what pKd value has been reported? ≤ 4.70

====

Molecular target: HLA-A*02:12
Assay: IEDB peptide-MHC binding, purified MHC/competitive/fluorescence; filed as Kd, often an IC50 or EC50 that approximates it; bounds were set here for any values at or beyond the usual limits of such assays
Settings: source organism: Entamoeba histolytica HM-1:IMSS
pKd: −log10 of the molar value.
reported endpoint: pKd

Which pKd is listed for LICYQIEYI ? ≤ 4.70

====

Target: HLA-B*08:02
Assay: IEDB peptide-MHC binding, purified MHC/direct/fluorescence; filed as Kd, often an IC50 or EC50 that approximates it; bounds were set here for any values at or beyond the usual limits of such assays
Details: source organism: Influenza A virus (A/Taiwan/2/2006(H1N1))
reported endpoint: Kd (µM)
Respond with the bare value in µM.

Find the recorded Kd belonging to IASMRRNYF and report it. 2.23

====

Target: HLA-A*68:02
Assay: IEDB peptide-MHC binding, purified MHC/competitive/radioactivity; filed as Kd, often an IC50 or EC50 that approximates it; bounds were set here for any values at or beyond the usual limits of such assays
Settings: source organism: Dengue virus 2 Jamaica/1409/1983
Documented Kd across a set of sequences
Show the value, then the unit it is measured in.

// solved cases for Kd follow
EVEDYGFGV :: 0.00704 µM
SASSMVNGV :: 0.0243 µM

Now for another entry.
Suppose we examine the sequence LTYQNKVVRV ; what Kd value has been reported? 0.0279 µM
